- target or test system: human GLP-1 receptor (human, UniProt P43220 24-463)
- measurement protocol: cell-based or functional assay
Bridge positions count the residues as written; N and C are the ends. Square brackets hold non-standard residues; d marks the D form. Ends that are not written are not given here. Nle = CCCC[C@H](N)C(=O)O; K4 = not defined here; K5 = not defined here; Aib = CC(C)(N)C(=O)O
Listing: EC50 [nM] of receptor-mediated cAMP synthesis of selected binders
Just the number please, in nM, no unit attached.

Here is how some binders turned out for EC50 [nM] of receptor-mediated cAMP synthesis.
H-Y[Aib]EGTFHSDYDIYKDKQAA[Aib]KFVQWLLAGGPSSGAPPPS-NH2 (bridge 14-21 via K4; reading uncertain) [ZA-41 - K4] :: 13.8
H-Y[Aib]EGTFT[dS]DY[dS]IYKDKQAA[Nle]KFVAWLLAGGPSSGAPPPS-NH2 (linker 14-21 via K4; not fully specified; reading uncertain) [ZA-43 - K4] :: 1.32
H-Y[Aib]EGTFT[dS]DY[dS]IYKDKQAA[Nle]KFVAWLLAGGPSSGAPPPS-NH2 (linker 14-21 via K5; not fully specified; reading uncertain) [ZA-43 - K5] :: 3.74
Y[Aib]EGTFTSDYSIYKDKQAA[Aib]KFVNWLLAGGPSSGAPPPS-NH2 (bridge 14-21; not fully specified (bridges); also: K4 staple carries PEG-fatty acid) [mCMD307 (2050-K4)] :: 0.01

[in] Reported EC50 [nM] of receptor-mediated cAMP synthesis, binder Y[Aib]EGTFTSDYSIYKDKQAA[Aib]KFVNWLLAGGPSSGAPPPS-NH2 (bridge 14-21 via K5; reading uncertain) [mCLZ715] : ____
[out] 0.02

[in] Quick one: EC50 [nM] of receptor-mediated cAMP synthesis for H-Y[Aib]EGTFHSDYDIYKDKQAA[Aib]KFVQWLLAGGPSSGAPPPS-NH2 (bridge 14-21 via K5; reading uncertain) [ZA-41 - K5] ?
[out] 83.9

[in] # EC50 [nM] of receptor-mediated cAMP synthesis lookup, item H-Y[Aib]EGTFHSDYDIYKDKQAA[Nle]KFVAWLLAGGPSSGAPPPS-NH2 (linker 14-21 via K4; not fully specified; reading uncertain) [ZA-42 - K4]
[out] 18.8
